Experiment: Tested for Tmax in male Sprague-Dawley rats dosed at 10 mg/kg orally
Assay type: ADME, organism-based
Set-up: dose 10 mg/kg, route oral
Settings: rat, in vivo, po
metricName: Tmax (h)
The response must be a number in h with no trailing unit.

For orientation, consider the following solved cases.
>  <molecule>
N#Cc1ccc(OCc2ccsc2)cc1OC(C(=O)O)c1ccccc1Cl (centres undefined)

>  <number>
0.5

$$$$
>  <molecule>
Cc1ccccc1C(Oc1cc(OCc2ccc3c(c2)OCO3)ccc1C#N)C(=O)[O-].[Na+] (centres undefined)

>  <number>
1

$$$$

Exercise: Fill blank: measured Tmax of the molecule Cc1ccccc1C(Oc1cc(OCc2ccncc2)ccc1C#N)C(=O)[O-].[Na+] (centres undefined) is ____.
Solution: 2

Exercise: Sample N#Cc1ccc(OCc2ccc3c(c2)OCO3)cc1OC(C(=O)O)c1ccccc1Cl (centres undefined) — what was its Tmax?
Solution: 1

---

Cmax by entry:
Test: Maximal plasma concentration in male Sprague-Dawley rats at 10 mg/kg oral dose
Type: ADME, organism-based
Set-up: dose 10 mg/kg, route oral
Settings: rat
State the answer as a number, implicitly in ng/mL.

Consider the reported Cmax for these molecules:
>  <molecule>
Cc1ccccc1C(Oc1cc(OCc2ccc3c(c2)OCO3)ccc1C#N)C(=O)[O-].[Na+] (centres undefined)

>  <metricName>
Cmax

>  <number>
5900

$$$$
>  <molecule>
N#Cc1ccc(OCc2ccsc2)cc1OC(C(=O)O)c1ccccc1Cl (centres undefined)

>  <metricName>
Cmax

>  <number>
62000

$$$$

Exercise: Quick check: Cmax of Cc1ccccc1C(Oc1cc(OCc2ccncc2)ccc1C#N)C(=O)[O-].[Na+] (centres undefined) ?
Solution: 290

Exercise: For N#Cc1ccc(OCc2ccc3c(c2)OCO3)cc1OC(C(=O)O)c1ccccc1Cl (centres undefined) , what is its reported Cmax?
Solution: 22000

Every entry's value here was drawn from ChEMBL document CHEMBL1132964.
